- PROTOCOL_SUMMARY: Metabolic stability (% remaining at 30 mins) in human S9.
- Format: ADME
- COND: human S9 fraction
PROPERTY_MEASURED: remaining at 0.5 h (%)

Cc1nc2cc(OC[C@H](O)CN3CCN(CC(=O)Nc4cccc(-c5ccccc5)c4)CC3)ccc2s1 58

a. Cc1nc2cc(OC[C@H](O)CN3CCN(CC(=O)N[C@H]4CCc5ccccc54)CC3)ccc2s1
b. Cc1nc2cc(OC[C@H](O)CN3CCN(CC(=O)Nc4cccc5ncccc45)CC3)ccc2s1
c. Cc1ccc(NC(=O)CN2CCN(C[C@@H](O)COc3ccc4sc(C)nc4c3)CC2)cc1
d. Cc1nc2cc(OC[C@H](O)CN3CCN(CC(=O)Nc4cc(Cl)c(Cl)c(Cl)c4)CC3)ccc2s1
INPUT: In this exercise, place the 4 compounds in ascending sequence of their recorded remaining at 0.5 h. Lab note: record answer as labels in requested order.
OUTPUT: a, b, d, c

* * *

- PROTOCOL_SUMMARY: Half life in rat after 2 mg/kg peroral administration
- Type: ADME, organism-based
- Parameters: dose 2 mg/kg, route oral
- COND: in vivo, po
PROPERTY_MEASURED: half-life (h)

a. CCn1c2ccccc2c2cc(NC(=O)CN3CCN(C[C@@H](O)COc4ccc5sc(C)nc5c4)CC3)ccc21
b. Cc1nc2cc(OC[C@H](O)CN3CCN(CC(=O)Nc4c(C)cccc4C)CC3)ccc2s1
INPUT: # return whichever of a and b has the smaller half-life Your answer should be the label attached to the chosen record.
OUTPUT: b
(b: 1.2 h, a: 2.6 h)

* * *

- PROTOCOL_SUMMARY: Metabolic stability (% remaining at 30 mins) in human S9.
- Assay type: ADME
- COND: human S9 fraction
PROPERTY_MEASURED: remaining at 0.5 h (%)

Cc1nc2cc(OC[C@H](O)CN3CCN(CC(=O)Nc4ccc(Cl)c(Cl)c4)CC3)ccc2s1 29
Cc1nc2cc(OC[C@H](O)CN3CCN(CC(=O)Nc4ccc(Oc5ccc(Cl)cc5)cc4)CC3)ccc2s1 64

P. CCn1c2ccccc2c2cc(NC(=O)CN3CCN(C[C@@H](O)COc4ccc5sc(C)nc5c4)CC3)ccc21
Q. Cc1nc2cc(OC[C@H](O)CN3CCN(CC(=O)NC4CCCCC4)CC3)ccc2s1
R. Cc1nc2cc(OC[C@H](O)CN3CCN(CC(=O)N[C@@H](C)c4ccccc4)CC3)ccc2s1
INPUT: Sort the compounds on remaining at 0.5 h; start with the lowest figure. Reply with the item labels sorted in the order that was asked for.
OUTPUT: R, Q, P

* * *

- PROTOCOL_SUMMARY: Metabolic stability (% remaining at 30 mins) in human S9.
- Type: ADME
- COND: human S9 fraction
PROPERTY_MEASURED: remaining at 0.5 h (%)

Cc1nc2cc(OC[C@H](O)CN3CCN(CC(=O)N[C@@H](C)c4ccc5ccccc5c4)CC3)ccc2s1 14

1. Cc1nc2cc(OC[C@H](O)CN3CCN(CC(=O)Nc4ccc5c(c4)CCCC5)CC3)ccc2s1
2. Cc1nc2cc(OC[C@H](O)CN3CCN(CC(=O)Nc4cccc5ccccc45)CC3)ccc2s1
3. Cc1nc2cc(OC[C@H](O)CN3CCN(CC(=O)Nc4ccc(Oc5ccccc5)cc4)CC3)ccc2s1
4. Cc1nc2cc(OC[C@H](O)CN3CCN(CC(=O)N[C@@H](C)c4ccc(F)cc4)CC3)ccc2s1
INPUT: Form: Sort by [remaining at 0.5 h] Order [ ascending ] Could you list the labels in the order requested?
OUTPUT: 1, 4, 3, 2
